# Tested on: SK-MEL-28 melanoma
# assay.summary: NCI tumour cell line growth inhibition, 48 h
For each record, write down the corresponding GI50.

Consider the following illustrative entries.
[
  {
    "molecule": "COC(=O)[C@@H](C)C[C@H](Cc1ccccc1)NC(=O)c1nc([C@@H](C[C@H](C(C)C)N(C)C(=O)[C@@H](NC(=O)[C@H]2C[C@H](O)CCN2C)C(C)C)OC(C)=O)sc1C(C)C",
    "assay.readout": "GI50",
    "recorded.measurement": "19.1 nM"
  },
  {
    "molecule": "CCN1CCN(CCC(=O)Nc2cccc(-n3cc(-c4ccncc4)c(-c4ccc(Cl)c(OC)c4)n3)c2)CC1",
    "assay.readout": "GI50",
    "recorded.measurement": "1390 nM"
  },
  {
    "molecule": "O=c1nc2n(-c3cccc(Cl)c3)c3ccc([N+](=O)[O-])cc3cc-2c(=O)[nH]1",
    "assay.readout": "GI50",
    "recorded.measurement": "8010 nM"
  },
  {
    "molecule": "Cn1cc(-c2ccc3nc(-c4ccc(CC(=O)Nc5cc(C(C)(C)C)no5)cc4)cnc3c2)cn1",
    "assay.readout": "GI50",
    "recorded.measurement": "104 nM"
  },
  {
    "molecule": "Nc1ccc(/C=C/c2ccc3ncccc3c2)cc1",
    "assay.readout": "GI50",
    "recorded.measurement": "> 100000 nM"
  },
  {
    "molecule": "C[C@@H]1CN2[C@H]3[C@@H]1CC[C@]31CCC(=O)O[C@]1(C)[C@H]1CC[C@H]3CCC=C3[C@@H]12",
    "assay.readout": "GI50",
    "recorded.measurement": "> 30000 nM"
  },
  {
    "molecule": "COc1cc(/C=C/C(=O)c2cccc(-n3cc(-c4ccccc4)[nH]c3=O)c2)cc(OC)c1OC",
    "assay.readout": "GI50",
    "recorded.measurement": "1740 nM"
  },
  {
    "molecule": "CC1(C)N=C(N)N=C(N)N1c1ccc(OCCCNC(=O)Nc2ccc(S(=O)(=O)F)cc2)c(Cl)c1",
    "assay.readout": "GI50",
    "recorded.measurement": "1740 nM"
  }
]

List reported GI50 for each of these molecules:
1. CN(C)CCNC(=O)c1cc2c3cc(Cl)ccc3[nH]c2c2ncccc12
2. O=C(N/N=C/c1ccc(Cl)cc1)c1ccc(NC(=O)c2ccccn2)cc1

Output line:
1: 2120 nM; 2: 33000 nM

----------
# System: BT-549 breast
# assay.summary: NCI tumour cell line growth inhibition, 48 h; in the data active = GI50 below about 0.43 µM; inactive = the rest
// classify into class 1 (active), class 0 (inactive)

// below: answered molecules
[
  {
    "molecule": "COc1ccc(-c2csc3c2-n2cccc2C3=O)cc1",
    "system.name": "BT-549 breast",
    "label": "class 1"
  },
  {
    "molecule": "COc1ccc(-c2nc3sc(-c4cc(OC)c(OC)c(OC)c4)nn3c2/C=C2/C(=O)Nc3ccc(F)cc32)cc1",
    "system.name": "BT-549 breast",
    "label": "class 0"
  },
  {
    "molecule": "COC(=O)c1c2c(c(C)[n+]([O-])c1C)C(=O)C(NCc1ccc(OC)cc1)=CC2=O",
    "system.name": "BT-549 breast",
    "label": "class 0"
  }
]

Input line: Hey, what did the test say about O=C(N/N=C/c1ccc(Cl)cc1)c1ccc(NC(=O)c2ccccn2)cc1 ?
Output line: class 0

Input line: Tell me the assay call for N#CC1=C(N)Oc2c(sc3c(Br)cccc23)C1c1ccc([N+](=O)[O-])cc1 (stereo unspecified) please.
Output line: class 1

Input line: What was the test verdict on CN1CCN(Cc2ccc(NC(=O)c3cncc(C#Cc4cnc(N)c5ncccc45)c3)cc2C(F)(F)F)CC1 ?
Output line: class 0

Input line: How did this test come out for O=C(NCc1cn(Cc2cccc(Oc3ccccc3)c2)nn1)c1cccnc1Nc1ccc(F)cc1 ?
Output line: class 0

Input line: Identify the outcome logged in this assay for the molecule shown: Nc1c(C(=O)Nc2cccc(Cl)c2)sc2nc3c(cc12)C(=O)CCC3
Output line: class 0

Input line: Returns: the outcome recorded for Cn1ncnc1[C@@H]1c2n[nH]c(=O)c3cc(F)cc(c23)N[C@H]1c1ccc(F)cc1 in this assay.
Output line: class 0
